# assayedSystem: PRC2 protein complex comprising EZH2(Y641F) (Homo sapiens (Human), UniProt Q15910, Y641F)
# Sequence (Q15910 whole entry Y641F): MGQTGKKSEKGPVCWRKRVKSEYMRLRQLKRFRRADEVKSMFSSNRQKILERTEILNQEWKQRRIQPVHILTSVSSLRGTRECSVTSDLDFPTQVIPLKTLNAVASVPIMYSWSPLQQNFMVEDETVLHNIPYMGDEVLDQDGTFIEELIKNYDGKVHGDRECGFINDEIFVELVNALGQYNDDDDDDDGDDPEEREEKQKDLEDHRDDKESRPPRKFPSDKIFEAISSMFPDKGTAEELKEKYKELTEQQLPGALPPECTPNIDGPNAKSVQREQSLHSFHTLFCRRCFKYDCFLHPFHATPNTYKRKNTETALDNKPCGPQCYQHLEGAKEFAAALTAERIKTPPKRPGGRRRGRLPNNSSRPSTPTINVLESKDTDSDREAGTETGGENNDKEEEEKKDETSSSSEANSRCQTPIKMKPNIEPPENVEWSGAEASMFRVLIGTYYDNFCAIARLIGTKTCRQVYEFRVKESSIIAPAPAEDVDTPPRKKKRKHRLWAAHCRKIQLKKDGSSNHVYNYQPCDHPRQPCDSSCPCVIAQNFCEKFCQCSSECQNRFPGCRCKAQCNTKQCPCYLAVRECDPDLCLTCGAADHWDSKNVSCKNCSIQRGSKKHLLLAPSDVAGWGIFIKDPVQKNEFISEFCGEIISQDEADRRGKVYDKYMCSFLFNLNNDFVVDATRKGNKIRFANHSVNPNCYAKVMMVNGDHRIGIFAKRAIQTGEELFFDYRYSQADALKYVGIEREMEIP
# Sequence (O75530 whole entry partner): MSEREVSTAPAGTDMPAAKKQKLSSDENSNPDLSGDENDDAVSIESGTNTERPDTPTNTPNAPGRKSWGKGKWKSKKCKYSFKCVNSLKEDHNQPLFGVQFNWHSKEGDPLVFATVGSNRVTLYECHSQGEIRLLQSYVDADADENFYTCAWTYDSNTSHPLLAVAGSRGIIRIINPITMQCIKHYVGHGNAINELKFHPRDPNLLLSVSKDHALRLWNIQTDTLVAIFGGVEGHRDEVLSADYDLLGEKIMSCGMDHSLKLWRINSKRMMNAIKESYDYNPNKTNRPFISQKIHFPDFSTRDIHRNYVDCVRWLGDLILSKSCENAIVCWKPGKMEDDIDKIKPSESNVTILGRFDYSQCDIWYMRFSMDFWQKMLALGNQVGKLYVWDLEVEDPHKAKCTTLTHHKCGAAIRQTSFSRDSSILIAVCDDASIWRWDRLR
# Sequence (Q15022 whole entry partner): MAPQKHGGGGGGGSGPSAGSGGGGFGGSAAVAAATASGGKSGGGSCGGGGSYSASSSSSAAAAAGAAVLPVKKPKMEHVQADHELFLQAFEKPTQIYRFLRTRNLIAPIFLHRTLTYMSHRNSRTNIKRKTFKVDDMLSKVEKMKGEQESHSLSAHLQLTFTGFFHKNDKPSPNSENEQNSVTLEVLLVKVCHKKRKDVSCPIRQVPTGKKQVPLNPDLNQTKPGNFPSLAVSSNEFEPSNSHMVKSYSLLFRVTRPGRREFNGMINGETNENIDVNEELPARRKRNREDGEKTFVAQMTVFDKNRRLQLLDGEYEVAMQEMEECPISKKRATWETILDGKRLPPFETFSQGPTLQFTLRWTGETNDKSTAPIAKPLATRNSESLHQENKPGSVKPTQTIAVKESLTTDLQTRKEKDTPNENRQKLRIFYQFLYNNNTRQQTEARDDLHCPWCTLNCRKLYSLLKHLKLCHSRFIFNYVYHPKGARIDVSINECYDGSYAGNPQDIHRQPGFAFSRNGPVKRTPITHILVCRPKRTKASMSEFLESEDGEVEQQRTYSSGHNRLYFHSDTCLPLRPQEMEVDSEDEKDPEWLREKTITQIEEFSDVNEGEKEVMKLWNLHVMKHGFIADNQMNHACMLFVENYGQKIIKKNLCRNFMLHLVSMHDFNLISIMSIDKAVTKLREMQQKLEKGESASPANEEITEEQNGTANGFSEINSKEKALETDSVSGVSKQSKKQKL
# Sequence (Q09028 whole entry partner): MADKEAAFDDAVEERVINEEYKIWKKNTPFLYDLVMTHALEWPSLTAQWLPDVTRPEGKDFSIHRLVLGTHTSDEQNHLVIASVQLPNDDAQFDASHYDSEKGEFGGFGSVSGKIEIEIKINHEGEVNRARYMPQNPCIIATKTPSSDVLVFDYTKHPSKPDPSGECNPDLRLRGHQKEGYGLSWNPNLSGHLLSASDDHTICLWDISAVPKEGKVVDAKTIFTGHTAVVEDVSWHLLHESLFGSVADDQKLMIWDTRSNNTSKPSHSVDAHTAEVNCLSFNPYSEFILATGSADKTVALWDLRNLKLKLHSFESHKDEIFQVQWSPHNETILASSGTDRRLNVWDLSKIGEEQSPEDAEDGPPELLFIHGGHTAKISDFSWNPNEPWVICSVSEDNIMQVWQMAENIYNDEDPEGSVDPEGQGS
# Sequence (Q6ZN18 whole entry partner): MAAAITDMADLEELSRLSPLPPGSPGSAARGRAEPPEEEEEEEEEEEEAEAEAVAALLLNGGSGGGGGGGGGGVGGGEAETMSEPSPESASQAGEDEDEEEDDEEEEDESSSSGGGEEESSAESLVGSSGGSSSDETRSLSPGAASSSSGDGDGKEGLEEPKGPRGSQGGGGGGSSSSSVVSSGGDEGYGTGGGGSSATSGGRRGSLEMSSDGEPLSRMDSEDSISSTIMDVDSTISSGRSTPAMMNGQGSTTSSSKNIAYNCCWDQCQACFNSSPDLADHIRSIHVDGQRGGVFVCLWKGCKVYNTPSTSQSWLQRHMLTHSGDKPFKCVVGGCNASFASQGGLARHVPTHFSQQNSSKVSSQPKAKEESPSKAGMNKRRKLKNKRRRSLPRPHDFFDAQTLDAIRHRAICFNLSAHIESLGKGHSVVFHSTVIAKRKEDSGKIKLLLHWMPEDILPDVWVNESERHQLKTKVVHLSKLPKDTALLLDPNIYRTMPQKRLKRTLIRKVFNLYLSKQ
# experimentNotes: EZH2(Y641F) TR-FRET enzymatic activity assay
reportedProperty: pIC50
Numbers only, as −log10 of the molar value.

Here's what some known entries look like.
>>> print(df.to_string())
                            structuresmiles  reportedproperty   val
0  CCN(C(=O)C1CCCC1)c1cc(-c2ccc(N3CCNCC3)cc2)cc(C(=O)NCc2c(C)cc(C)[nH]c2=O)c1C             pIC50  6.35
1  CCN(C(=O)C1CC1)c1cc(-c2ccc(OCCCN3CCOCC3)c(F)c2)cc(C(=O)NCc2c(C)cc(C)[nH]c2=O)c1C             pIC50  7.54
2  CCN(C(=O)C1CC1)c1cc(-c2ccc(OCCCN3CCOCC3)cc2C)cc(C(=O)NCc2c(C)cc(C)[nH]c2=O)c1C             pIC50  6.99
3  CCN(C(=O)C1CCCC1)c1cc(-c2ccc(CN3CCNCC3)cc2)cc(C(=O)NCc2c(C)cc(C)[nH]c2=O)c1C             pIC50  7.23
4  CCN(C(=O)C1CCCC1)c1cc(-c2ccnc(N3CCN(CC4CC4)CC3)c2)cc(C(=O)NCc2c(C)cc(C)[nH]c2=O)c1C             pIC50  6.29

Shifting focus to the compound that follows.
Fill in pIC50 for CCN(C(=O)C1CCCC1)c1cc(-c2ccc(OCCN3CCOCC3)cc2)cc(C(=O)NCc2c(C)cc(C)[nH]c2=O)c1C tested with PRC2 protein complex comprising EZH2(Y641F) (Homo sapiens (Human), UniProt Q15910, Y641F). 6.66
